Origin of values: patent US20250340658A1

TARGET_OF_ASSAY: T1, full length human GLP-1R with N-terminal FLAG tag and C-terminal GFP tag, on CHO cells (human, UniProt P43220 24-463)
T1 construct: whole, on cells; the cell line itself is tied to UniProt P43220; also called FLAG-GLP-1R-GFP; CHO-GLP-1R
PROTOCOL_SUMMARY: flow cytometry titration, CHO GLP1R cells
PARAMETER: Bmax
Note: the reply should be a number with no unit written.

Consider the reported Bmax for these binders:
GLP1R-222-081 (antibody, V domains shown, IgG) VH: QVQLVESGGGVVQPGRSLRLSCAASGFTFDNYALHWVRQAPGKGLEWVALISYDAGNKYYADSVKGRFTISRDNSKNTLYLQMNSLRAEDTAVYYCAKHMSMQEGAVTGEGQAAKEFIAWLVKGFVRADLVGDAFDVWGQGTLVTVSS VL: QSVLTQPPSVSAAPGQKVTISCSGSSSNIGSDYVSWYQQLPGTAPKLLIYDNNKRSSGIPDRFSGSKSGTSATLGITGLQTGDEADYYCGTWDESLRSWVFGGGTKLTVL : 194000
GLP1R-222-090 (antibody, V domains shown, IgG) VH: QVQLVESGGGVVQPGRSLRLSCAASGFSFSDYGIHWVRQAPGKGLEWVALISYEGSNKYYADSVKGRFTISRDNSKNTLYLQMNSLRAEDTAVYYCAKHMSMQEGAVTGEKQAAKEFIAWLVKGRVRADLVGDAFDVWGQGTLVTVSS VL: QSVLTQPPSVSAAPGQKVTISCSGSSSNIADNYVSWYQQLPGTAPKLLIYDNNKRASGIPDRFSGSKSGTSATLGITGLQTGDEADYYCATWDNRLSAGVFGGGTKLTVL : 1.08e+06

# context switch: different binder, same Bmax
### Prompt Field request: Bmax | item: GLP1R-222-056 (antibody, V domains shown, IgG) VH: QVQLVESGGGVVQPGRSLRLSCAASGFPFSSYAMHWVRQAPGKGLEWVAVISYDRSNKYYADSVKGRFTISRDNSKNTLYLQMNSLRAEDTAVYYCAKHMSMQEGAVTGYGQAAKEFIAWLVKGFVRADLVGDAFDVWGQGTLVTVSS VL: QSVLTQPPSVSAAPGQKVTISCSGSSSNIGSNYISWYQQLPGTAPKLLIYDNDKRPAGIPDRFSGSKSGTSATLGITGLQTGDEADYYCGTWDTSLSVGEFGGGTKLTVL
### Response 293000
